# Protocol Notes: logP determination by HPLC on a reversed-phase column (C 18), EEC Directive 79/831 Annex V.A8
# Format: physicochemical
# Measurement Parameters: method marked [b] in Table 1
Measurement Type: logP

Molecule	Readout Value
C=C(CON=C(C)c1cccc(C)n1)CON=C(c1cccc(C)n1)C(C)C (single isomer, unassigned)	3.87^[b] (isomer A)
CCCC(=NOCC1(CON=C(CCC)c2cccc(C)n2)CC(C=C(C)C)=NO1)c1cccc(C)n1 (stereo not shown)	5.97^[b]
Cc1nc(/C(N)=N/OCc2ccccc2CO/N=C(\N)c2nc(C)c3c(n2)CCCC3)nc2c1CCCC2	3.25^[b]

Below is a list of molecules. For each, state its recorded logP.
1. CC(=NOCCC(C)ON=C(C)c1nc(C)ccc1C)c1nc(C)ccc1C (single isomer, unassigned) [compound 759]
2. CCC(CON=C(C)c1nc(C)ccc1C)CON=C(C)c1nc(C)ccc1C (single isomer, unassigned) [compound 751]
3. CC(=NOCC(CON=C(C)c1cccc(C)n1)C(C)C)c1cccc(C)n1 (stereo not shown)
4. CCC(CON=C(C)c1cc(C)cc(C)n1)CON=C(C)c1cc(C)cc(C)n1 (stereo not shown)

1: 3.12^[b]; 2: 3.19^[b]; 3: 5.03^[b]; 4: 2.61^[b]
